Protocol Details: Pharmacokinetics of weight-based doses in AML subjects
Assay type: in vivo, human
Reported Conditions: human, plasma, intravenous, 5 mg/kg, 5 mg/kg/dose; read-out: Cmax, Median
Measurement Kind: Cmax (ng/mL)
Give just the numeric value; ng/mL need not be written.

Please list Cmax recorded for the molecule CC[C@@H]1CC(C(=O)NCCNC(=O)CCOCCOCCOCCOCCOCCOCCOCCOCCOCCOCCOCCOC)C[C@@H](O[C@@H]2O[C@@H](CO)[C@H](O)C(O[C@@H](CC3CCCCC3)C(=O)O)C2NC(C)=O)C1OC1O[C@@H](C)C(O)[C@H](O)[C@@H]1O (stereo partly shown)
36300
